- assay.info: protein stability index of a GFP-peptide fusion (GPS, HEK-293T) (PSI 1-6); higher = more stable;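 also: 24-mer peptide tiles fused after GFP, lentivirally expressed, FACS-sorted into six equal bins by GFP/DsRed ratio, decoded by Illumina sequencing, PSI is the read-weighted mean bin number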
- study.conditions: treatment: DMSO; c terminus: a fixed tail appended
Below, each entry is listed alongside its reported protein stability index.

{"construct.sequence": "HNRSNNKYSYTSTSDDNLLKNIEL [KCTD13]", "protein stability index": 3.66}
{"construct.sequence": "ISKNKKKASNSIISCFNNAPPAKL [FAN1]", "protein stability index": 3.36}
{"construct.sequence": "PQARMREENMERIGEEVRQLMEKL [BEX1]", "protein stability index": 4.51}
{"construct.sequence": "RHEVIMDRHGVYGLQRNLLVENII [TRIM63]", "protein stability index": 2.42}
{"construct.sequence": "TQYFVQENYLEYRQVPGSDPACYE [MAGEA6]", "protein stability index": 3.34}
{"construct.sequence": "GHSSSVEMFLYFEDHGLVTCSADH [WDR41]", "protein stability index": 2.16}
{"construct.sequence": "AAPPPPATPIVPVVPPTPPVVKKK [BRD3]", "protein stability index": 5.51}
{"construct.sequence": "DAVPPGMESLISAPLVKTLEKEEE [CDC25B]", "protein stability index": 5.44}
{"construct.sequence": "ICELVMALDYLQNQRIIHRDMKPD [STK32A]", "protein stability index": 2.62}
{"construct.sequence": "YLSNARPDNWFCYPCIPNHELVWA [ZMYND11]", "protein stability index": 2.67}
{"construct.sequence": "FATQTEELNKQVVSSSEQLQSCQA [KRT34]", "protein stability index": 4.87}
{"construct.sequence": "ENYETVISLALFVLPKPKVISCLE [ZNF75A]", "protein stability index": 3.11}
{"construct.sequence": "SAENGLEKSGFSQHQNKSPPKVKA [DLC1]", "protein stability index": 5.14}
{"construct.sequence": "FHRLDEPPHICWDETHFGKMGSYY [POMT2]", "protein stability index": 2.42}
{"construct.sequence": "ICPLKERRFGAVACGVAMELYVFG [GAN]", "protein stability index": 2.36}
{"construct.sequence": "QDGSPTTSRRPSGTGTGPEDGRPS [PDLIM4]", "protein stability index": 5.37}
{"construct.sequence": "ITSSIPDTERLDDFHLSIHSDMAA [DVL3]", "protein stability index": 4.08}
{"construct.sequence": "KSRRSRSESETSTMAAKKNRQSSD [C18orf25]", "protein stability index": 5.47}
{"construct.sequence": "GCFRSQGASLRLAVEDGLQQFKQY [M1AP]", "protein stability index": 2.88}
{"construct.sequence": "GCSSTQGNGRPGRPSQYRPDGLRS [LCOR]", "protein stability index": 4.07}
{"construct.sequence": "YLEKYYNLKNDGRQVEKRRNSGPV [MMP1]", "protein stability index": 2.68}
{"construct.sequence": "TPEKKAEEERDEEEDKRRKGEEVT [EPB41L3]", "protein stability index": 5.74}
{"construct.sequence": "TESYIARPDGDCASSLNGGNIKGI [ZC2HC1A]", "protein stability index": 4.09}
{"construct.sequence": "MEPATAPRPDMAPELTPEEEQATK [PTPN9]", "protein stability index": 5.71}
{"construct.sequence": "GIENEEDTSKQKKMETMYPFIVTL [ZNF449]", "protein stability index": 2.39}
{"construct.sequence": "TLHPDASANFHSLDDIYYFGGQNA [FUT8]", "protein stability index": 3.21}
{"construct.sequence": "KVLGNRWAEIAKMLPGRTDNAVKN [MYBL2]", "protein stability index": 2.91}

----------
Below, each entry is listed alongside its reported protein stability index.
- assay.info: protein stability index of a GFP-peptide fusion (GPS, HEK-293T) (PSI 1-6); higher = more stable
- study.conditions: treatment: DMSO; c terminus: a fixed tail appended

{"construct.sequence": "YLDVDLTLTREQTERLSHQITSRV [RTN2]", "protein stability index": 3.17}
{"construct.sequence": "VKVLAFTSIGDGPLSSDIQVITQT [PTPRD]", "protein stability index": 2.62}
{"construct.sequence": "ICPKCWTLMTMAIRIIDRALKEDF [PRIM1]", "protein stability index": 2.25}
{"construct.sequence": "GGRTALHHAALNGHVEMVNLLLAK [ANKRD44]", "protein stability index": 2.76}
{"construct.sequence": "RMLKDNKKNWRRVYKSLLLLAYLI [CLINT1]", "protein stability index": 2.45}
{"construct.sequence": "TCSADHLIILWKNGERESGLRSLR [WDR41]", "protein stability index": 2.09}
{"construct.sequence": "HGVRAKVQPQARKKEMEMRQLQRG [CPN1]", "protein stability index": 4.38}
{"construct.sequence": "AEGLANGPDVLETDGLQEVPLCSC [EHMT1]", "protein stability index": 4.75}
{"construct.sequence": "PLAMNYLDRFLSLEPVKKSRLQLL [CCND1]", "protein stability index": 2.23}
{"construct.sequence": "INVWDVLKGSRVSILFGHENRVST [GNB5]", "protein stability index": 2.31}
{"construct.sequence": "NSSNSDIVHVEKEEVPEGMEEAAV [BCL2L13]", "protein stability index": 5.6}
{"construct.sequence": "MAAMFNGNYMEAKSVLIPVYGVSK [RHOBTB3]", "protein stability index": 2.27}
{"construct.sequence": "ESLIVFMEQVHRGIKGLVRDSHGK [CPXM2]", "protein stability index": 2.26}

----------
- assay.info: protein stability index of a GFP-peptide fusion (GPS, HEK-293T) (PSI 1-6); higher = more stable
- study.conditions: treatment: DMSO; c terminus: a fixed tail appended
readout.label: protein stability index

{"construct.sequence": "MDGSGEQPRGGVSSRIEQGEWGGR", "endpoint.value": 4.58}
{"construct.sequence": "RLVHTTAIEHFQPNADLLFSDPSQ [FCHO1]", "endpoint.value": 3.78}
{"construct.sequence": "GKKRCKDIKRLLVNFMYLQSLLQP [SMG5]", "endpoint.value": 2.43}
{"construct.sequence": "RARGWAAAARAAQRRRRVENAGGS [RSAD1]", "endpoint.value": 4.48}
{"construct.sequence": "LIISCRKLFYFKIWAFLDVSFVER [FBXO39]", "endpoint.value": 3.43}
{"construct.sequence": "ISLTCVSVAFAVAWFLPMPQKSLF [SLC19A2]", "endpoint.value": 3.15}
{"construct.sequence": "EKNIILEEKIQVLQQQNEDLKARI [MTUS2]", "endpoint.value": 4.03}
{"construct.sequence": "RNPGPGRHRLITQVYLSHTAWTEA [INTS4]", "endpoint.value": 2}
{"construct.sequence": "LSSVEAYNIRTDSWTTVTSMTTPR [KLHL12]", "endpoint.value": 2.79}
{"construct.sequence": "IEKTGGVEAVKNELRRQAPPPPPP [WASL]", "endpoint.value": 4.49}
{"construct.sequence": "WAISSWFRRGPAPQDQAGPGGAPR [CLPTM1]", "endpoint.value": 2.75}
{"construct.sequence": "QCRERREHPNLVRDHVETELLKEA [TEKT4]", "endpoint.value": 4.77}
{"construct.sequence": "LIHVYLPLTSHILRAFVNSQIQGH [SNX8]", "endpoint.value": 3.2}
{"construct.sequence": "RISHTLYDLDKIIELNGGQPPLTY [CRY1]", "endpoint.value": 2.38}
{"construct.sequence": "AQTLAMMLQEQLDAINEEIRMIQE [PPFIA4]", "endpoint.value": 2.95}
{"construct.sequence": "ILGETQEEEDEILPRKDYESLDYD [CLCN6]", "endpoint.value": 5.33}
{"construct.sequence": "SPTSRPPWAVDPAFAERYAPDKTS [PDLIM7]", "endpoint.value": 4.63}
{"construct.sequence": "VVLDRHGVYGLQRNLLVENIIDIY [TRIM55]", "endpoint.value": 2.44}
{"construct.sequence": "LSETADPFFVLNSDVICDFPFQAM [GMPPB]", "endpoint.value": 2.44}
{"construct.sequence": "STEKVVQETVLVEERRVVHASGDA [EPB41L3]", "endpoint.value": 5.33}
{"construct.sequence": "DSSCSGQPIHLWQFLKELLLKPHS [SPDEF]", "endpoint.value": 2.47}
{"construct.sequence": "LELLDKIERSKIVSTMRCKTRQKS [PPEF2]", "endpoint.value": 3.54}
{"construct.sequence": "DLRINLWNFEITNQSFNIVDIKPA [PPP2R2B]", "endpoint.value": 2.47}
{"construct.sequence": "MDTQFTIRARELQNIYKCIMLKNI [IQUB]", "endpoint.value": 2.27}
{"construct.sequence": "ECGKTFIYNSHLVVHQRVHSGEKP [ZNF232]", "endpoint.value": 2.96}
{"construct.sequence": "MQPTLLLSLLGAVGLAAVNSMPVD [CHGB]", "endpoint.value": 2.85}
{"construct.sequence": "LQLLLGCKARMERDGYGMTPLLAA [FEM1A]", "endpoint.value": 2.38}
{"construct.sequence": "LTVVSFYQVAALQGDLASLRAELQ [TNFSF13B]", "endpoint.value": 2.77}
{"construct.sequence": "ERIVVAGNNEDVSFSRPADLDLIQ [MFF]", "endpoint.value": 4.96}
{"construct.sequence": "IRDIRRRGKNKMAAQNCRKRKLDT [NFE2L1]", "endpoint.value": 3.84}
{"construct.sequence": "GTDQVCVLEWGAEGVAGKSGLEKE [FCHSD1]", "endpoint.value": 5.01}
{"construct.sequence": "TLLLQGHHDKVQSLCYLQLTRQLV [WDFY1]", "endpoint.value": 2.8}
{"construct.sequence": "GSSSFSLKGYPSLMRSQSPKAQPQ [TRIM29]", "endpoint.value": 3.76}
{"construct.sequence": "PEPRSEVVPARLKRASAPTFDNDY [RIPK4]", "endpoint.value": 4.86}
{"construct.sequence": "QGNGLFYSSGPQSWYPKANNQDFI [ZC2HC1C]", "endpoint.value": 2.6}
{"construct.sequence": "RGVPLLEWETEVEMDKLRASDIME [CLCN6]", "endpoint.value": 4.2}
{"construct.sequence": "EEGLADEEKKLRRSQHARKETEFL [STK38L]", "endpoint.value": 5.33}
{"construct.sequence": "VCCNPYHFSRLCGPESPPPPYSRL [SMAD6]", "endpoint.value": 2.15}
{"construct.sequence": "IGESMYGDFEEAFDHLQNRLIATK [TENT5C]", "endpoint.value": 3.63}
{"construct.sequence": "VDQKLELNIVPRTKVVYLASETFN [PI4K2A]", "endpoint.value": 2.38}
{"construct.sequence": "HSTTPSGPGDEVARGIAGEKFDIV [ARFIP2]", "endpoint.value": 4.75}
{"construct.sequence": "EPVLTQTSEQAPSSAPRDVQARML [PTPRD]", "endpoint.value": 5.13}
{"construct.sequence": "PGSTSPLETSGNPNGRYGSGYLLA [SLC6A17]", "endpoint.value": 3.44}
{"construct.sequence": "FLGSSFSPVRCGGPGDASPRGCGA [WEE1]", "endpoint.value": 2.27}
{"construct.sequence": "IQKLTQIETGENVTGMELEFKRLA [PTPRD]", "endpoint.value": 3.51}
{"construct.sequence": "SPKRGTAPGDLSATEPATCFPSTQ [FBF1]", "endpoint.value": 4.87}
{"construct.sequence": "ANHTHTFYGHSHHSHHGHPSHQSH [C10orf62]", "endpoint.value": 3.51}
{"construct.sequence": "GLPGKVFACLSVLFVTVTAVNLSV [KCNG1]", "endpoint.value": 3.36}
{"construct.sequence": "SQSSYLSQHRRIHSGEKPFICKEC [ZNF232]", "endpoint.value": 3.36}
{"construct.sequence": "LSALDSKANNLSSLSKKYRQDAKY [SEC22B]", "endpoint.value": 3.87}
{"construct.sequence": "RDLALVSRDGMNIVLNKINQILME [INTS3]", "endpoint.value": 2.58}
{"construct.sequence": "CTNIFYEEENPGGCEDEYLVNPTC [ZER1]", "endpoint.value": 4.31}
{"construct.sequence": "LMDVTGGPFDLMSRRVIAANNRIL [IMPA1]", "endpoint.value": 2.75}
